Test system: Human immunodeficiency virus 1
ASSAY METHOD TEXT: Ratio of ID50 for HIV 1 reverse transcriptase L100I mutant to ID50 for wild type HIV 1 NL4-3 reverse transcriptase
MEASURED PROPERTY: Ratio

1. Cc1c(C(C)c2c(F)cccc2F)nc(N(C)C)[nH]c1=O (stereo unspecified) ... 10
2. CC(c1ccnc(Nc2ccc(C#N)cc2)n1)c1c(F)cccc1F (stereo unspecified) ... 74

For each of the items listed, what is its Ratio?
1. Cc1c(N)nc(Nc2ccc(C#N)cc2)nc1Cc1c(F)cccc1F
2. N#Cc1ccc(Nc2nc(N)cc(Cc3c(F)cccc3F)n2)cc1
3. Cc1c(C(C)c2c(F)cccc2F)nc(Nc2ccc(C#N)cc2)[nH]c1=O (stereo unspecified)

1. 55
2. 137
3. 2500

Given Cc1cnc(Nc2ccc(C#N)cc2)nc1C(C)c1c(F)cccc1F (stereo unspecified) , state its recorded Ratio.
19

----------
System: Human immunodeficiency virus type 1 reverse transcriptase (Human immunodeficiency virus 1), Q72547 [Y181I]
MEASURED PROPERTY: ID50

For orientation, consider the following solved cases.
1) Cc1c(N)nc(Nc2ccc(C#N)cc2)nc1C(C)c1c(F)cccc1F (stereo unspecified) ... 1.68 µM
2) CC(c1cc(=O)[nH]c(Nc2ccc(C#N)cc2)n1)c1c(F)cccc1F (stereo unspecified) ... 12.3 µM
3) Cc1c(Cl)nc(Nc2ccc(C#N)cc2)nc1Cc1c(F)cccc1F ... > 40 µM
4) Cc1c(Cl)nc(Nc2ccc(C#N)cc2)nc1C(C)c1c(F)cccc1F (stereo unspecified) ... 3.4 µM
5) Cc1c(Cc2c(F)cccc2F)nc(Nc2ccc(C#N)cc2)[nH]c1=O ... > 80 µM
6) Cc1c(N)nc(Nc2ccc(C#N)cc2)nc1Cc1c(F)cccc1F ... 22.1 µM
7) N#Cc1ccc(Nc2nc(N)cc(Cc3c(F)cccc3F)n2)cc1 ... 17.3 µM
8) N#Cc1ccc(Nc2nc(Cc3c(F)cccc3F)cc(=O)[nH]2)cc1 ... 56 µM
9) Cc1c(C(C)c2c(F)cccc2F)nc(N(C)C)[nH]c1=O (stereo unspecified) ... 4 µM
10) CC(c1cc(N)nc(Nc2ccc(C#N)cc2)n1)c1c(F)cccc1F (stereo unspecified) ... 11.1 µM

Kindly review the next compound as well.
Given CC(c1ccnc(Nc2ccc(C#N)cc2)n1)c1c(F)cccc1F (stereo unspecified) , state its recorded ID50.
5.91 µM

----------
Provide the recorded EC50 for the entries that follow.
System: Human immunodeficiency virus 1
ASSAY METHOD TEXT: Antiviral activity against HIV 1 harboring reverse transcriptase Y188L mutant infected in human MT4 cells assessed as inhibition of virus-induced cytopathic effect after 5 days by MTT assay
Format: functional, organism-based
CONDITION SET: Human immunodeficiency virus 1, MT4, 120 h

1. Cc1c(Cc2c(F)cccc2F)nc(Nc2ccc(C#N)cc2)[nH]c1=O ... > 2.84 µM
2. CC(c1cc(N)nc(Nc2ccc(C#N)cc2)n1)c1c(F)cccc1F (stereo unspecified) ... 0.0666 µM
3. CC(c1cc(Cl)nc(Nc2ccc(C#N)cc2)n1)c1c(F)cccc1F (stereo unspecified) ... 0.836 µM
4. Cc1ccnc2c1NC(=O)c1cccnc1N2C1CC1 [NEVIRAPINE] ... > 7.51 µM
5. N#Cc1ccc(Nc2nccc(Cc3c(F)cccc3F)n2)cc1 ... 0.225 µM

For each of the items listed, what is its EC50?
1. Cc1c(N)nc(Nc2ccc(C#N)cc2)nc1C(C)c1c(F)cccc1F (stereo unspecified)
2. Cc1c(C(C)c2c(F)cccc2F)nc(Nc2ccc(C#N)cc2)[nH]c1=O (stereo unspecified)

1: 0.0274 µM; 2: 0.23 µM

For each of the items listed, what is its EC50?
1. N#Cc1ccc(Nc2nc(Cl)cc(Cc3c(F)cccc3F)n2)cc1
2. CC(c1cc(=O)[nH]c(Nc2ccc(C#N)cc2)n1)c1c(F)cccc1F (stereo unspecified)

["1.4 µM", "0.653 µM"]

For each of the items listed, what is its EC50?
1. Cc1c(N)nc(Nc2ccc(C#N)cc2)nc1Cc1c(F)cccc1F
2. Cc1c(Cl)nc(Nc2ccc(C#N)cc2)nc1C(C)c1c(F)cccc1F (stereo unspecified)

0.151 µM
0.06 µM

----------
Tested on: Human immunodeficiency virus 1
ASSAY METHOD TEXT: Ratio of ID50 for HIV 1 reverse transcriptase L100I mutant to ID50 for wild type HIV 1 NL4-3 reverse transcriptase
Quick rule: Ratio of at least 300 means Criterion met, below that means Criterion not met.

Check the entry Cc1cnc(Nc2ccc(C#N)cc2)nc1Cc1c(F)cccc1F : does Ratio equal or exceed 300?
Criterion met

Check the entry Cc1c(Cl)nc(Nc2ccc(C#N)cc2)nc1C(C)c1c(F)cccc1F (stereo unspecified) : does Ratio equal or exceed 300?
Criterion not met

Check the entry N#Cc1ccc(Nc2nc(Cc3c(F)cccc3F)cc(=O)[nH]2)cc1 : does Ratio equal or exceed 300?
Criterion met

Check the entry CC(c1cc(N)nc(Nc2ccc(C#N)cc2)n1)c1c(F)cccc1F (stereo unspecified) : does Ratio equal or exceed 300?
Criterion not met

Check the entry Cc1c(N)nc(Nc2ccc(C#N)cc2)nc1C(C)c1c(F)cccc1F (stereo unspecified) : does Ratio equal or exceed 300?
Criterion not met

Check the entry N#Cc1ccc(Nc2nccc(Cc3c(F)cccc3F)n2)cc1 : does Ratio equal or exceed 300?
Criterion not met

----------
Provide the recorded CC50 for the entries that follow.
ASSAY METHOD TEXT: Cytotoxicity against human MT4 cells assessed as cell viability by MTT assay
Assay type: cell-based

For each of the items listed, what is its CC50?
1. N#Cc1ccc(Nc2nc(N)cc(Cc3c(F)cccc3F)n2)cc1
2. Cc1c(Cl)nc(Nc2ccc(C#N)cc2)nc1C(C)c1c(F)cccc1F (stereo not drawn)

["44.6 µM", "> 13 µM"]

----------
Test system: Human immunodeficiency virus type 1 reverse transcriptase (Human immunodeficiency virus 1), Q72547 [Y181I]
MEASURED PROPERTY: ID50 (µM)
Numbers only, in µM.

For orientation, consider the following solved cases.
1) CC(c1cc(Cl)nc(Nc2ccc(C#N)cc2)n1)c1c(F)cccc1F (stereo not drawn) ... 28.6
2) Cc1ccnc2c1NC(=O)c1cccnc1N2C1CC1 [NEVIRAPINE] ... 35
3) Cc1cnc(Nc2ccc(C#N)cc2)nc1C(C)c1c(F)cccc1F (stereo not drawn) ... 5

For each of the items listed, what is its ID50?
1. Cc1c(C(C)c2c(F)cccc2F)nc(Nc2ccc(C#N)cc2)[nH]c1=O (stereo not drawn)
2. N#Cc1ccc(Nc2nccc(Cc3c(F)cccc3F)n2)cc1

1. 1.4
2. 7.47

----------
System: Human immunodeficiency virus 1
ASSAY METHOD TEXT: Ratio of ID50 for HIV 1 reverse transcriptase Y188L mutant to ID50 for wild type HIV 1 NL4-3 reverse transcriptase
Provide the recorded Ratio for the entries that follow.

1) N#Cc1ccc(Nc2nc(N)cc(Cc3c(F)cccc3F)n2)cc1 ... 280
2) Cc1c(N)nc(Nc2ccc(C#N)cc2)nc1C(C)c1c(F)cccc1F (stereo unspecified) ... 10
3) N#Cc1ccc(Nc2nc(Cc3c(F)cccc3F)cc(=O)[nH]2)cc1 ... 1550
4) CC(c1cc(=O)[nH]c(Nc2ccc(C#N)cc2)n1)c1c(F)cccc1F (stereo unspecified) ... 149
5) Cc1c(C(C)c2c(F)cccc2F)nc(Nc2ccc(C#N)cc2)[nH]c1=O (stereo unspecified) ... 172
6) Cc1c(Cl)nc(Nc2ccc(C#N)cc2)nc1Cc1c(F)cccc1F ... 371
7) CC(c1ccnc(Nc2ccc(C#N)cc2)n1)c1c(F)cccc1F (stereo unspecified) ... 85
8) N#Cc1ccc(Nc2nccc(Cc3c(F)cccc3F)n2)cc1 ... 306

For each of the items listed, what is its Ratio?
1. Cc1c(C(C)c2c(F)cccc2F)nc(N(C)C)[nH]c1=O (stereo unspecified)
2. Cc1c(N)nc(Nc2ccc(C#N)cc2)nc1Cc1c(F)cccc1F
3. CC(c1cc(N)nc(Nc2ccc(C#N)cc2)n1)c1c(F)cccc1F (stereo unspecified)

5
315
147

----------
Provide the recorded Ratio for the entries that follow.
Test system: Human immunodeficiency virus 1
ASSAY METHOD TEXT: Ratio of ID50 for HIV 1 reverse transcriptase Y188L mutant to ID50 for wild type HIV 1 NL4-3 reverse transcriptase
Numbers only.

For each of the items listed, what is its Ratio?
1. Cc1cnc(Nc2ccc(C#N)cc2)nc1C(C)c1c(F)cccc1F (stereo not drawn)
2. CC(c1cc(Cl)nc(Nc2ccc(C#N)cc2)n1)c1c(F)cccc1F (stereo not drawn)
3. Cc1c(Cl)nc(Nc2ccc(C#N)cc2)nc1C(C)c1c(F)cccc1F (stereo not drawn)

1: 43; 2: 237; 3: 2.6

----------
Provide the recorded CC50 for the entries that follow.
ASSAY METHOD TEXT: Cytotoxicity against human MT4 cells assessed as cell viability by MTT assay
Format: cell-based

For orientation, consider the following solved cases.
1) N#Cc1ccc(Nc2nccc(Cc3c(F)cccc3F)n2)cc1 ... > 77.6 µM
2) Cc1c(Cl)nc(Nc2ccc(C#N)cc2)nc1Cc1c(F)cccc1F ... > 2.7 µM
3) CC(c1cc(Cl)nc(Nc2ccc(C#N)cc2)n1)c1c(F)cccc1F (stereo unspecified) ... > 2.7 µM

For each of the items listed, what is its CC50?
1. Cc1cnc(Nc2ccc(C#N)cc2)nc1Cc1c(F)cccc1F
2. Cc1cc(C)c(Nc2ccnc(Nc3ccc(C#N)cc3)n2)c(C)c1
3. Cc1cnc(Nc2ccc(C#N)cc2)nc1C(C)c1c(F)cccc1F (stereo unspecified)

> 74.3 µM
3.04 µM
71.4 µM
